target-or-system: T1, biotinylated goat anti-human kappa light chain
T1 construct: positive control of the ELISA
assay-text: ELISA, positive control; also: test concentration or dose not given here
# key: entry, value: optical density

binder	optical density / OD
366_A02 (antibody, V domains shown, Group I) VH: EVQLLESGGGLVQPGGSLRLSCAASGFTFDSYGMNWVRQAPGKGLEWVASINYNSGYKGYADSVKGRFTISRDNSKNTLYLQMNSLRAEDTAVYYCARAANWHDTHLDYWGQGTLVTVSS VL: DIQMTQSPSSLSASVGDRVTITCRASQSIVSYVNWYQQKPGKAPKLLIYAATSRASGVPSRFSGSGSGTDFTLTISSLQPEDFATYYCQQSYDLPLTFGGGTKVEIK	3.58
374_B01 (antibody, V domains shown, Group II) VH: EVQLLESGGGLVQPGGSLRLSCAASGFTFDSYGMHWVRQAPGKGLEWVAGINYNSGYTSYADSVKGRFTISRDNSKNTLYLQMNSLRAEDTAVYYCARAATWHDTHLDYWGQGTLVTVSS VL: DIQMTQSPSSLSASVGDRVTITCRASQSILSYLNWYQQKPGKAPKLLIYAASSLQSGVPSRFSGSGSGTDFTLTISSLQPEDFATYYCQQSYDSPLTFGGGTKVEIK	2.92
365_E06 (antibody, V domains shown, Group II) VH: EVQLLESGGGLVQPGGSLRLSCAASGFTFDSYGMNWVRQAPGKGLEWVSGINYNGGYTGYADSVKGRFTISRDNSKNTLYLQMNSLRAEDTAVYYCARAATWHDTHLDYWGQGTLVTVSS VL: DIQMTQSPSSLSASVGDRVTITCRASQSILTYLNWYQQKPGKAPKLVIYAATSRASGVPSRFSGSGSGTDFTLTISSLQPEDFATYYCQQSYNTPLTFGGGTKVEIK	3.29
